biological target: Cytochrome P450 2C9 (Homo sapiens) (UniProt P11712); assay: blockers of cytochrome P450 2C9 activity – biochemical, luminescence, ADME assay, primary screen (AID 777); conditions: CYP2C9 Supersomes, luciferin-H conversion, at 5 µM, hits give high values
Sequence (P11712 whole entry, looked up): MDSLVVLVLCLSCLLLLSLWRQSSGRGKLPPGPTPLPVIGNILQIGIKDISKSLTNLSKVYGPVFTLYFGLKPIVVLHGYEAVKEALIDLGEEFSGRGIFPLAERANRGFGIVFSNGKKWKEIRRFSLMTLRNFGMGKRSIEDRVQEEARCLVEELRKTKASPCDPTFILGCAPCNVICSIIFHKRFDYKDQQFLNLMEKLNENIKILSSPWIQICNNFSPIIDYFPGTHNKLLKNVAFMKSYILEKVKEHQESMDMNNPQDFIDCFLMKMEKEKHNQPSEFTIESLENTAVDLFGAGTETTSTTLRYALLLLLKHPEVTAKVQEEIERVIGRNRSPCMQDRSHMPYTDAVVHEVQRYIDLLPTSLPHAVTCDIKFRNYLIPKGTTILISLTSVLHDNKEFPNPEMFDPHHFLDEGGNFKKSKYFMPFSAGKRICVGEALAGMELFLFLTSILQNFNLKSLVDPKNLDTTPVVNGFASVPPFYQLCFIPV
Hit rate of the full screen: of about 96,000 compounds, about 19,000 (20%) were called active. The list is a sample of the results.
Measured Metric: inhibition (%)
Kindly provide the numeric value in % only, without the unit symbol.

The recorded inhibition for entry CCOc1cc(/C=N/O)cc(Br)c1OC equals 17.9

The recorded inhibition for entry Cc1nc2ccc(S(=O)(=O)NC(C(=O)N3CCCCCC3)C(C)C)cc2s1 (stereo unspecified) equals 26.6

The recorded inhibition for entry CN(C)/C=C(\C#N)C(=O)c1cccnc1Oc1cccc(F)c1 equals 12.2

The recorded inhibition for entry COc1cc(C2CC(=O)N3CN(Cc4ccccc4)CSC3=C2C#N)ccc1OCc1ccccc1 (stereo unspecified) equals 86.4

The recorded inhibition for entry COc1nc(OC)nc(N(C)CCO)n1 equals 3

The recorded inhibition for entry CCOc1cccc(/C(O)=C2/C(=O)C(=O)N(CCOC)C2c2ccncc2)c1 (stereo unspecified) equals -8.6

The recorded inhibition for entry CCn1ncc(C2=NOC(C(=O)Nc3ccccc3C(=O)OC)C2)c1C (stereo unspecified) equals -34.3

The recorded inhibition for entry O=S(=O)(NC1CCCCC1)c1ccc(F)c2ccccc12 equals 53.4

The recorded inhibition for entry Cc1cccc(N2C(=O)c3cccnc3C2=O)c1 equals 3.1

The recorded inhibition for entry Cc1nc2ccc(C(=O)N3CCSCC3)cc2s1 equals 0.6

The recorded inhibition for entry COc1ccc(C2CC(=O)Nc3sc(=N)c4c(N)c(C#N)c(N)nc4c32)cc1OC (stereo unspecified) equals 41.6

----------
target: Cytochrome P450 2C9 (Homo sapiens); test: blockers of cytochrome P450 2C9 activity – biochemical, luminescence, ADME assay, primary screen (AID 777); conditions: CYP2C9 Supersomes, luciferin-H conversion, at 5 µM, hits give high values
Among all 96,000 compounds or so, about 19,000 (20%) were called active. A selection follows.
Measured Metric: inhibition

The recorded inhibition for entry O=S(=O)(Nc1ccc2nc(-c3ccco3)[nH]c2c1)c1ccccc1 equals 85.2% (active)

The recorded inhibition for entry COc1cccc(N(CC(=O)Nc2cccc(F)c2)S(C)(=O)=O)c1 equals 45.4% (inactive)

The recorded inhibition for entry Cn1c(=O)n(CCc2ccccc2)c(=O)c2c1nc1n2CCCN1c1ccccc1 equals 14.3% (inactive)

The recorded inhibition for entry Cc1ccc(NC(=O)CN2CCC3(O)CCCCC3C2c2ccc3c(c2)OCO3)c(C)c1 (stereo not drawn) equals 90.4% (active)

The recorded inhibition for entry O=C(NCc1ccccc1)[C@@H]1CSC2c3ccccc3C(=O)N21 (stereo partly drawn) equals 67.1% (active)

The recorded inhibition for entry CC(=O)Nc1nonc1-c1nc2ccccc2n1Cc1ccccn1 equals 7.4% (inactive)

The recorded inhibition for entry CCOC(=O)CN1CC23C=CC(O2)C(C(=O)Nc2ccc(F)cc2)C3C1=O (stereo not drawn) equals -21.8% (inactive)

The recorded inhibition for entry Cc1nn(Cc2ccccc2)c(Cl)c1C(=O)OC1CCOC1=O (stereo not drawn) equals 5.7% (inactive)

The recorded inhibition for entry N#Cc1ccccc1-n1c(N)c(C(=O)N2CCCC2)sc1=S equals 69.3% (active)

The recorded inhibition for entry O=C(Nc1cccc2cccnc12)c1cccc(N2C(=O)CCC2=O)c1 equals -71.6% (inactive)

The recorded inhibition for entry O=C(Nc1ccccc1)N(Cc1cccnc1)Cc1ccco1 equals 35.5% (inactive)

The recorded inhibition for entry COc1cc(C2C(C(=O)OCCC#N)=C(C)NC3=C2S(=O)(=O)c2ccccc23)cc(OC)c1OC (stereo not drawn) equals 50.9% (active)

The recorded inhibition for entry CCC(c1nnnn1Cc1ccccc1)N(Cc1cc2cc(OC)ccc2[nH]c1=O)CC1CCCO1 (stereo not drawn) equals 66.2% (active)

The recorded inhibition for entry COc1ccc(CNC(=O)c2cc3c(=O)n4ccccc4nc3n(CC3CCCO3)c2=N)cc1 (stereo not drawn) equals 9.5% (inactive)

The recorded inhibition for entry CCOC(=O)c1cnn(Cc2ccccc2Cl)c1N equals 22% (inactive)

The recorded inhibition for entry O=S(=O)(O)CCN1CCOCC1 equals 1.4% (inactive)

The recorded inhibition for entry S=c1[nH]nc(-c2ccco2)n1/N=C/c1ccc(Br)s1 equals -24.6% (inactive)

The recorded inhibition for entry O=C(CSc1nc2ccccc2o1)N1CCN(c2ccccc2)CC1 equals 29.7% (inactive)

The recorded inhibition for entry Cc1ccc(-n2c(N)c(C(=O)N3CCOCC3)sc2=S)c(C)c1 equals 8.6% (inactive)

The recorded inhibition for entry CCCCCCNC(=O)CSc1nccn1Cc1ccccc1 equals 77.3% (active)

The recorded inhibition for entry Cc1ccsc1C(=O)OCC(=O)c1cc(C)n(CC2CCCO2)c1C (stereo not drawn) equals -70.9% (inactive)

The recorded inhibition for entry CCOC(=O)CSc1nnc(NC(=O)c2cccc(S(=O)(=O)N3CCCCC3)c2)s1 equals 35.5% (inactive)

The recorded inhibition for entry COc1ccc2[nH]c(=O)c(CN(Cc3nnnn3CCc3ccccc3)CC3CCCO3)cc2c1 (stereo not drawn) equals 68% (active)

The recorded inhibition for entry CCOP1(=O)C=C(C(C)(C)C)OC1c1ccc(F)cc1 (stereo not drawn) equals -21.5% (inactive)

The recorded inhibition for entry c1ccc2[nH]c(-c3nc4ccccc4[nH]3)nc2c1 equals 16.1% (inactive)

The recorded inhibition for entry CCN(CC)c1ccc(C2C3CCCCC3(O)CCN2CC(=O)Nc2ccccc2)cc1 (stereo not drawn) equals 1.4% (inactive)

The recorded inhibition for entry Cc1cccc(N(CC(=O)Nc2ccc(-c3nc4ccc(C)cc4s3)cc2)S(C)(=O)=O)c1 equals 6.7% (inactive)

The recorded inhibition for entry COc1ccc(N(Cc2cc3cc(OC)ccc3[nH]c2=O)S(C)(=O)=O)cc1 equals 26.9% (inactive)

The recorded inhibition for entry CCOC(=O)C1(C(F)(F)F)N=C(N(C)C)OC(N(C)C)=N1 equals 5.6% (inactive)

The recorded inhibition for entry Cn1c(NC(=O)c2ccco2)c(-c2ccccc2Cl)c(=O)c2ccccc21 equals -3.7% (inactive)

The recorded inhibition for entry COCCOC(=O)C1=C(C)Nc2nc(C)nn2C1c1ccccc1 (stereo not drawn) equals 16.7% (inactive)

The recorded inhibition for entry CCOc1ccc2[nH]c(=O)c(CN(Cc3nnnn3Cc3ccccc3)CC3CCCO3)cc2c1 (stereo not drawn) equals 13% (inactive)

The recorded inhibition for entry Clc1ccc(Cn2ncc3c(NCc4cccnc4)ncnc32)cc1 equals 49.7% (inactive)

The recorded inhibition for entry CCC(=O)N(Cc1cc2cc(OC)ccc2[nH]c1=O)c1ccccc1C equals 36.4% (inactive)

The recorded inhibition for entry CCOC(=O)C1=C(CC)Nc2ccccc2N=C1NC(=O)c1cccc(S(=O)(=O)N2CCCC2)c1 equals 90.2% (active)

The recorded inhibition for entry Cc1cccc(-n2c(N)c(C(=O)N3CCN(C)CC3)sc2=S)c1 equals 19.9% (inactive)

The recorded inhibition for entry CS(=O)(=O)N(CC(=O)Nc1ccc(F)cc1F)c1cccc([N+](=O)[O-])c1 equals 13.3% (inactive)

The recorded inhibition for entry O=C(COc1ncnc2c(Cl)cc(Cl)cc12)N1CCN(S(=O)(=O)c2ccccc2)CC1 equals -7.6% (inactive)

The recorded inhibition for entry Cc1cc(C)c2cc(CN(Cc3cccs3)Cc3nnnn3CC3CCCO3)c(=O)[nH]c2c1 (stereo not drawn) equals 75.5% (active)

The recorded inhibition for entry Cc1cc(NS(=O)(=O)c2ccccc2)no1 equals 12.3% (inactive)

The recorded inhibition for entry Cc1ccc(-c2c3c(=O)n(C)c(=O)n(C)c3cn2-n2cnnc2)cc1 equals -7.5% (inactive)

The recorded inhibition for entry Cc1cccc(N2CCN(S(=O)(=O)c3ccc4[nH]c(=O)c(=O)[nH]c4c3)CC2C)c1 (stereo not drawn) equals 52.5% (active)

The recorded inhibition for entry COc1cccc(N2C(=O)CC(N3CCN(S(=O)(=O)c4ccccc4)CC3)C2=O)c1 (stereo not drawn) equals 6.5% (inactive)
